# subject_of_test: human mPGES-1 (Homo sapiens)
Measured pIC50 of individual entries
Recall that pIC50 is obtained by taking minus log10 of the concentration measured in molar.

Below: 6 compounds and their reported pIC50.
[
  {
    "compound": "CC(=O)NCc1ccc(Cl)c(-c2nc(O)nc(-c3ccc(C(F)(F)F)cc3)n2)c1C",
    "subject_of_test": "human mPGES-1 (Homo sapiens)",
    "value_measured": 7.72
  },
  {
    "compound": "Cc1cccc(C)c1-c1nc(O)nc(-c2ccc(C(C)C)cc2)n1",
    "subject_of_test": "human mPGES-1 (Homo sapiens)",
    "value_measured": 5.72
  },
  {
    "compound": "COC(C)(C)C(=O)NCc1ccc(Cl)c(-c2nc(O)nc(-c3cccc(C(C)(C)C)c3)n2)c1",
    "subject_of_test": "human mPGES-1 (Homo sapiens)",
    "value_measured": 9.22
  },
  {
    "compound": "CC(O)c1ccc(Cl)c(-c2nc(O)nc(-c3ccc(C(F)(F)F)cc3)n2)c1 (centres unmarked)",
    "subject_of_test": "human mPGES-1 (Homo sapiens)",
    "value_measured": 6.94
  },
  {
    "compound": "Cc1cccc(C)c1-c1nc(O)nc(-c2ccc(OCC3CCCC3)cc2)n1",
    "subject_of_test": "human mPGES-1 (Homo sapiens)",
    "value_measured": 7.21
  },
  {
    "compound": "CCc1cc(-c2nc(O)nc(-c3c(C)cccc3C)n2)ccc1Cl",
    "subject_of_test": "human mPGES-1 (Homo sapiens)",
    "value_measured": 6.77
  }
]

Incoming: Reported pIC50, compound `CN(C)C(=O)CCc1ccc(Cl)c(-c2nc(O)nc(-c3ccc(OCC(C)(C)C)cc3)n2)c1` : ____
Outgoing: 7.15

Incoming: # get_value(readout='pIC50', item= `Oc1nc(-c2ccc(C#Cc3ccccc3)cc2)nc(-c2c(OCc3ncccc3F)cccc2C(F)(F)F)n1` )
Outgoing: 8.36

Incoming: Can you look up the measured pIC50 of `CC(C)COc1ccc(-c2nc(O)nc(-c3cc(CNC(=O)C(C)(C)C(F)(F)F)ccc3Cl)n2)cc1C(F)(F)F` for me?
Outgoing: 7.32

Incoming: What value of measured pIC50 is listed for `CC(C)(C)c1cccc(-c2nc(O)nc(-c3cc(CNC(=O)C(C)(C)C(F)(F)F)ccc3Cl)n2)c1` ?
Outgoing: 9.30

Incoming: Name the reported pIC50 value associated with the compound `CCc1cc(-c2nc(O)nc(-c3cc(CNC(=O)[C@@](C)(OC)C(F)(F)F)ccc3Cl)n2)ccc1F`
Outgoing: 9.40

Incoming: # lookup: pIC50 of `Cc1cccc(C)c1-c1nc(O)nc(-c2ccc(OCC(C)C)cc2)n1`
Outgoing: 6.62

Incoming: Fill blank: measured pIC50 of the compound `CC(C)(C(=O)NCc1ccc(Cl)c(-c2nc(O)nc(-c3ccc(O)cc3)n2)c1)C(F)(F)F` is ____.
Outgoing: 8.40

Incoming: Which pIC50 value is on record for Cc1cc(-c2nc(O)nc(-c3cc(CNC(=O)C(C)(C)C(F)(F)F)ccc3Cl)n2)ccc1F [Example 1-90] ?
Outgoing: 9.40

====

Measured IC50, listed per entry.
Sequence of the target: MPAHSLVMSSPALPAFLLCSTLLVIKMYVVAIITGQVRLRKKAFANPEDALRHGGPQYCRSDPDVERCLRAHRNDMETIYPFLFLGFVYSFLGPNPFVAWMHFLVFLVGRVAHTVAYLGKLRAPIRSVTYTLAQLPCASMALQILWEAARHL
# value in nM; strip the unit string

[
  {
    "compound": "COCc1cccc(-c2nc(O)nc(-c3cc(CNC(=O)C(C)(C)C)ccc3Cl)n2)c1",
    "property_name": "IC50",
    "value_measured": 6.7
  }
]

Incoming: Recorded IC50 of `Cc1cccc(C)c1-c1nc(O)nc(-c2ccc(C#CC3CCCCC3)cc2)n1` , please.
Outgoing: 8

Incoming: Recorded IC50 of CC1CCC(CO)(C(=O)NCc2ccc(Cl)c(-c3nc(O)nc(-c4ccccc4)n3)c2)CC1 (single isomer, unassigned) , please.
Outgoing: 98

Incoming: Looking for the measured IC50 of `Oc1nc(-c2ccc(C#CC3CCCCC3)cc2)nc(-c2c(Cl)cccc2OCc2ccccn2)n1` , can you help?
Outgoing: 4.4

Incoming: What measured IC50 goes with `CCOc1ccc(-c2nc(O)nc(-c3cc(CNC(=O)C(C)(C)C(F)(F)F)ccc3Cl)n2)cc1` ?
Outgoing: 0.3

Incoming: May I ask what IC50 has been recorded for `CC(C)COc1ccc(-c2nc(O)nc(-c3cc(CNC(=O)C4(C(F)(F)F)CC4)ccc3Cl)n2)cc1` ?
Outgoing: 1.4

Incoming: Which IC50 is reported for this compound? `CCCC(=O)NCc1ccc(Cl)c(-c2nc(O)nc(-c3ccc(C(F)(F)F)cc3)n2)c1`
Outgoing: 0.7

Incoming: # IC50 lookup, item `CNC(=O)NCc1ccc(Cl)c(-c2nc(O)nc(-c3ccc(C(F)(F)F)cc3)n2)c1`
Outgoing: 22

Incoming: // query IC50 value for entry `CCOc1ccc(-c2nc(O)nc(-c3c(C)cccc3C)n2)cc1`
Outgoing: 1300

Incoming: Fill in the blank: the reported IC50 of `CC(C)(C)OC(=O)NCc1ccc(Cl)c(-c2nc(O)nc(-c3ccc(C(F)(F)F)cc3)n2)c1` is ____.
Outgoing: 7.4

Incoming: # get_value(readout='IC50', item= `Cc1c(CNC(=O)C(C)(C)C(F)(F)F)ccc(Cl)c1-c1nc(O)nc(-c2ccc(CC(C)C)cc2)n1` )
Outgoing: 2

Incoming: Reported IC50 for `Oc1nc(-c2ccc(C#CC3CC3)cc2)nc(-c2c(Cl)cccc2OCc2ccccn2)n1` : what is it?
Outgoing: 1.7

Incoming: Entry under review: `CC(C)(C(=O)NCc1ccc(Cl)c(-c2nc(O)nc(-c3cccc(C4CCC4)c3)n2)c1)C(F)(F)F` . Reported IC50?
Outgoing: 0.9

Incoming: Please report the recorded IC50 for `CC(C)(C(=O)NCc1ccc(Cl)c(-c2nc(O)nc(-c3cccc(C(F)(F)F)c3)n2)c1)C(F)(F)F` .
Outgoing: 0.6

Incoming: # get_value(readout='IC50', item= `CCCc1cccc(-c2nc(O)nc(-c3cc(CNC(=O)C(C)(C)C(F)(F)F)c(C)cc3Cl)n2)c1` )
Outgoing: 2.1

====

# subject_of_test: human mPGES-1 (Homo sapiens)
# Construct: made in house; host or cells: FreeStyle CHO-S cells (Chinese hamster ovary), transient transfection with pcDNA3.1(+)/human mPGES-1; microsome fraction used
# assay_comment: Evaluation of human mPGES-1 enzyme inhibitory activity (PGE2 measured by HTRF, microsome fraction of CHO-S cells expressing human mPGES-1)
# Type: biochemical
# run_conditions: IC50 value; microsome fraction of CHO-S cells expressing human mPGES-1, PGE2 by HTRF
The following molecules are shown together with reported log10 of IC50 values.
Could you please treat all values as log10 of IC50 in nM?

[
  {
    "compound_structure": "CN(Cc1ccc(Cl)c(-c2nc(O)nc(-c3ccc(OCC(C)(C)C)cc3)n2)c1)S(=O)(=O)C(C)(C)C",
    "log10 of IC50": 0.85
  },
  {
    "compound_structure": "CC(C)(C(=O)NCc1ccc(Cl)c(-c2nc(O)nc(-c3ccccc3)n2)c1)C(F)(F)F",
    "log10 of IC50": -0.52
  },
  {
    "compound_structure": "CCCCOc1ccc(-c2nc(O)nc(-c3cc(CNC(=O)C(C)(C)C(F)(F)F)ccc3Cl)n2)cc1",
    "log10 of IC50": -0.05
  },
  {
    "compound_structure": "C[C@@H](Oc1cccc(Cl)c1-c1nc(O)nc(-c2ccc(OCC(C)(C)C)cc2)n1)c1ccccn1",
    "log10 of IC50": 2.41
  },
  {
    "compound_structure": "Cc1cccc(C)c1-c1nc(O)nc(-c2ccc(OCCC(C)C)cc2)n1",
    "log10 of IC50": 2.24
  },
  {
    "compound_structure": "Cc1cccc(C)c1-c1nc(O)nc(-c2ccc(OCC3CCCCC3)cc2)n1",
    "log10 of IC50": 1.61
  }
]

Incoming: Suppose we examine the molecule `Oc1nc(-c2ccc(C#Cc3ccccc3)c(F)c2)nc(-c2c(OCc3ccccn3)cccc2C(F)(F)F)n1` ; what log10 of IC50 value has been reported?
Outgoing: 0.70

Incoming: # get_value(readout='log10 of IC50', item= `CCc1cc(-c2nc(O)nc(-c3cc(CNC(=O)C4(C(F)(F)F)CC4)ccc3Cl)n2)ccc1F` )
Outgoing: -0.40

Incoming: Give its log10 of IC50 value. Item: `Oc1nc(-c2ccc(C#Cc3ccccn3)cc2)nc(-c2c(Cl)cccc2OCc2ccccc2)n1`
Outgoing: 1.32
